Tested on: CSNK1A1L
Settings: concentration: 1 μM, replicates: in singlicate; n = 1
Collected %Inh values appear next to each entry.
Reported Property: %Inh (%)

> print(dat)
                                   compound  unit  observed
1  COc1ccc(CNC(=O)NC2CCN(c3ccnc(Nc4ccc(F)cc4)n3)C2)cc1 (centres unmarked)     %        12
2    Fc1cccc(CSc2nnc(-c3ccc4c(c3)CCO4)o2)c1     %        11
3        CCc1nc(-c2cccc(C)c2)c(-c2ccncc2)s1     %        12
4  Cc1cc(Nc2nc(-c3cccc(C)n3)nc3ccccc23)ccn1     %         0
5  Cc1nc(N(C)[C@H]2CN(C(=O)CC#N)CC[C@H]2C)c2cc[nH]c2n1     %         3

====

Test system: LKB1;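 note: kd values determined as follow-up on hits from a single-replicate KINOMEscan panel screen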
Construct: gene STK11
pKd: −log10 of the molar value.
Reported Property: pKd

> print(dat)
                                   molecule  reported.property  observed
1  Nc1ncnc2c1ncn2-c1cccc2ccccc12 [SKF-97184]                pKd    < 5.00

====

System: PRKX
Settings: concentration: 1 μM, replicates: in singlicate; n = 1
Reported Property: %Inh

> print(dat)
                                   molecule  reported.property  observed
1  Nc1nccc2scc(-c3ccc4c(c3)CCN4C(=O)Cc3ccccc3)c12               %Inh       14%
2  O=C(NCc1cccs1)c1cc(C(=O)c2c(Cl)cccc2Cl)c[nH]1               %Inh        0%
3  O=C(Nc1n[nH]c2nc(-c3ccccc3)c(Cl)cc12)C1CC1               %Inh        0%
4             Nc1ncnc2c1ncn2-c1cccc2ccccc12               %Inh        0%
5  Cc1nnc(-c2ccc(C)c(-c3ccc(C(=O)O)cc3)c2)o1               %Inh        0%
6  COc1ccc(Nc2nccc(N3CCC(NS(=O)(=O)c4ccc(NC(C)=O)cc4)C3)n2)cc1 (stereo not drawn)               %Inh        2%
7  COc1cc(OC)cc(-c2cc3cnc(N)nc3nc2NC(=O)NC(C)(C)C)c1               %Inh        5%
8  CCCC(=O)Nc1n[nH]c2ncc(-c3cccc4ccccc34)cc12               %Inh       12%
9        CCc1nc(-c2cccc(C)c2)c(-c2ccncc2)s1               %Inh        0%

====

System: ADCK3
Construct: gene CABC1
Settings: concentration: 1 μM, replicates: in singlicate; n = 1
Reported Property: %Inh

> print(dat)
                                   compound  observed
1  CCS(=O)(=O)c1ccc(OC)c(Nc2ncc(-c3ccc(F)cc3)o2)c1.Cl        1%
2    Fc1cccc(CSc2nnc(-c3ccc4c(c3)CCO4)o2)c1        0%
3  COc1cc(Nc2nccc(N3CCC(NC(=O)C(C)c4ccc(Cl)cc4)C3)n2)cc(OC)c1OC (stereo not drawn)        3%
4  Cc1c(Cn2c(C)nn3c(=O)cc(N4CCO[C@H](C)C4)nc23)cccc1C(F)(F)F       22%
5  OCCCNc1nccc(-c2c(-c3cccc(C(F)(F)F)c3)nn3cc(C(F)(F)F)ccc23)n1       68%
6  Cc1nc(N(C)[C@H]2CN(C(=O)CC#N)CC[C@H]2C)c2cc[nH]c2n1        0%
7  COc1cc(OC)cc(-c2cc3cnc(N)nc3nc2NC(=O)NC(C)(C)C)c1        0%
8  CC(C)(C)c1ccc(C(=O)Nc2cn3cc(-c4ccccc4)ccc3n2)cc1       25%
9  COc1ccc(CNC(=O)NC2CCN(c3ccnc(Nc4ccc(F)cc4)n3)C2)cc1 (stereo not drawn)       29%

====

Tested on: BRSK1
Settings: concentration: 1 μM, replicates: in singlicate; n = 1
Collected %Inh values appear next to each entry.
Reported Property: %Inh (%)

> print(dat)
                                   compound  tested.on  observed
1  Cc1nnc(-c2ccc(C)c(-c3ccc(C(=O)O)cc3)c2)o1      BRSK1         2
2             COc1cccc(-n2cnc3c(N)ncnc32)c1      BRSK1        16
3  CCS(=O)c1ccc(-c2coc3ccc(-c4nnc(C)o4)cc23)cc1 (stereo not drawn)      BRSK1         0
4              Nc1n[nH]c2ncc(-c3ccccc3)cc12      BRSK1         0
5  Cc1c(Cn2c(C)nn3c(=O)cc(N4CCO[C@H](C)C4)nc23)cccc1C(F)(F)F      BRSK1         7
6  COC(=O)c1c(-c2ccccc2)c2cc(C)ccc2c(=O)n1Cc1ccccc1      BRSK1         0

====

A collection of compounds and their measured %Inh
System: MAST1
Details: concentration: 1 μM, replicates: in singlicate; n = 1
Reported Property: %Inh (%)

> print(dat)
                                   compound  unit  observed
1  FC(F)(F)c1ccc(-c2ncn(CCCN3CCOCC3)c2-c2ccncc2)cc1     %        23
2  CCCC(=O)Nc1n[nH]c2ncc(-c3cccc4ccccc34)cc12     %         0
3           Nc1nc(N)c2nc(-c3ccccc3)[nH]c2n1     %         0
4               Nc1ncnc2c1ncn2-c1ccc(Cl)cc1     %         0
5  COc1cc(Nc2nccc(N3CCC(NC(=O)C4COc5ccccc5O4)C3)n2)cc(OC)c1OC (centres unmarked)     %         0
6  Nc1nccc2scc(-c3ccc4c(c3)CCN4C(=O)Cc3ccccc3)c12     %         0
7                Nc1ncnc2c1ncn2-c1cccc(F)c1     %        19
8      O=C1NC(=O)C(c2ccccc2)=C1Nc1cccc(O)c1     %        33

====

Test system: HASPIN
Construct: gene GSG2
Details: concentration: 1 μM, replicates: in singlicate; n = 1
Reported Property: %Inh (%)

> print(dat)
                                    compound  tested.on  observed
 1  Nc1n[nH]c2ncc(-c3ccccc3)cc12 [SB-517081]     HASPIN         0
 2  COc1cc2nccc(Nc3ccc(OCc4ccc(NC(C)=O)cc4)cc3)c2cc1OC.Cl [GW440135]     HASPIN        18
 3  COC(=O)c1c(-c2ccccc2)c2cc(C)ccc2c(=O)n1Cc1ccccc1     HASPIN         0
 4  COc1cccc(C2=C(N(C)c3ccccc3)C(=O)NC2=O)c1 [SB-334865]     HASPIN         2
 5  Cc1c(Cn2c(C)nn3c(=O)cc(N4CCO[C@H](C)C4)nc23)cccc1C(F)(F)F [GSK2373690]     HASPIN         0
 6  CN1C(=O)C(Nc2cc(Cl)c(O)c(Cl)c2)=C(c2ccc(Cl)cc2)C1=O [SB-404321]     HASPIN         0
 7  CCC(=O)c1c(-c2ccccc2)c2cc(Cl)ccc2c(=O)n1Cc1cc(S(C)(=O)=O)n(CCC(C)(C)O)n1     HASPIN        43
 8  COc1cc2ncn(-c3cc(OCCCc4ccccc4)c(C(N)=O)s3)c2cc1OC [GSK205189]     HASPIN         0
 9     CCCNC(=O)Nc1ccc(Oc2ncnc3ccn(C)c23)cc1     HASPIN        41
10  COc1ccc(CNC(=O)NC2CCN(c3ccnc(Nc4ccc(F)cc4)n3)C2)cc1 (stereo not drawn) [GSK1379706]     HASPIN        32
11  CCS(=O)c1ccc(-c2coc3ccc(-c4nnc(C)o4)cc23)cc1 (stereo not drawn)     HASPIN        17
12  O=C(Nc1n[nH]c2nc(-c3ccccc3)c(Br)cc12)C1CC1 [SB-708998]     HASPIN         0
13  COc1cccc(C2=C(Nc3cccc(C(=O)O)c3)C(=O)NC2=O)c1 [SB-390770]     HASPIN        10
14  COc1cc(Nc2nccc(N3CCC(NC(=O)C(C)c4ccc(Cl)cc4)C3)n2)cc(OC)c1OC (stereo not drawn) [GSK1379757]     HASPIN        21
15  O=C(Nc1ccc2c(c1)OCO2)NC1CCN(c2ccnc(NCc3ccc(F)cc3)n2)CC1 [GSK1379859]     HASPIN         0
16  COc1cc2nccc(Nc3cccc(Oc4ccccc4)c3)c2cc1OC.Cl [GW284543]     HASPIN        11
17  CCCC(=O)Nc1n[nH]c2ncc(-c3cccc4ccccc34)cc12 [SB-642057]     HASPIN         0
18  Nc1nc(-c2ccccc2F)c(-c2ccnc3ccccc23)s1 [GW560459]     HASPIN        25

Data provenance is paper PMC5540273.
